Each recorded value in this set is attributed to the supplement of paper PMC6555819.

# System: RARb:RXRa (NR concentration 270 nM, RXRa partner concentration 90 nM)
# experimental-details: PBM binding z-score (relative to random genomic background probes); higher = stronger binding; sequences stand for … in GC…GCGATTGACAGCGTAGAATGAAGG
result-type: PBM binding z-score
Numbers only.

Worked examples follow.
sequence-data: CCTAGTTGGTCAGGAGGTCAAACACCGGATATGA
reading: 3.76

sequence-data: CCTAGCAGGCCAATCTGGGTCAATCAAGGCTTGA
reading: 1.31

sequence-data: TAGCCTAGGTCATTGGGCCTGTATAGTACGCATC
reading: 3.55

sequence-data: ATATGTAGGTTAGGTGGGGTCATTCAGACTAGGC
reading: 2.98

Value sought for every listed sequence: PBM binding z-score.
1. GCGACTGGGGCATCAGGAGGTTACCATAACTTAA
2. CCGACTGGGGCATAGGTTACCATACTCAGTACGA
3. TATACAGGGACAAAGGCCAGAGTACGAATGTCGA
4. CGAACTAGGTCAAGGACAGAGAATCTCCGCACGC

Response:
1: 1.21; 2: 0.735; 3: 1.54; 4: 3.87

Value sought for every listed sequence: PBM binding z-score.
1. CCATACGGGTCACTCCAGGTTATAGCATCGGAGT
2. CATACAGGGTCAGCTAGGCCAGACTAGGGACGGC
3. CGAACGAGGGCATGAGTTGAAAGCAAATGCCGAT
4. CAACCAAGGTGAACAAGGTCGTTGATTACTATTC
5. TTACCAAGGTGAAAGGCCGTTGATGCACGCCTTG
6. ATCGAAAGGTCGTTAGGTGAGTATACAGAAAGGC

Response:
3.54
3.94
1.96
2.29
1.66
3.53

Value sought for every listed sequence: PBM binding z-score.
1. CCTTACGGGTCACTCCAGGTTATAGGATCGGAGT
2. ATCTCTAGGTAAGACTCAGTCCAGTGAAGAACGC
3. TCTGGTAGATCAAGCAGGTTAAGAAAGCCTGAGT

Response:
3.8
0.0795
-0.0969

Value sought for every listed sequence: PBM binding z-score.
1. CAAACTAGGTCAAGAGGTCAGAGTCCGCTTCCCG
2. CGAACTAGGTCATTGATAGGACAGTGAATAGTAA

Response:
1. 5.15
2. 3.4

Prompt: Endpoint output: PBM binding z-score of "GCGACTGGGGCAAAGCAGGTTACCTTAAGGTTGG" . Value?
Response: 0.877

====

# Tested on: RARg:RXRa (NR concentration 270 nM, RXRa partner concentration 90 nM)
# experimental-details: PBM binding z-score (relative to random genomic background probes); higher = stronger binding; sequences stand for … in GC…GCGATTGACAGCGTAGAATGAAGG
Would you mind labelling by PBM binding z-score? At or over 0.6 is yes (1), under is no (0).

Check out these entries, answers already filled in.
sequence-data: TAGCCTAGGTCGGATCGGGCCAGTATACGCTATA
qualitative-label: no (0)
//
sequence-data: CCTACGGGGCCATCAGGTCATTGATATCAACGTT
qualitative-label: yes (1)
//
sequence-data: AGAATGAGGTTATACCTAGATCAGGGAAGAAAGT
qualitative-label: yes (1)
//
sequence-data: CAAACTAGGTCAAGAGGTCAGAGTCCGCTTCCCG
qualitative-label: yes (1)
//
sequence-data: CGTCCAAGGTCAGAGAGGTCAATGAATGCCGAGT
qualitative-label: yes (1)
//
sequence-data: CCTTACGGGTCACGAGGTTATAGAACGACGAGCG
qualitative-label: yes (1)

Prompt: Identify whether the reported PBM binding z-score of the following sequence is 0.6 or greater: "TCTTGTAGATCAAAGGTTAAGTAAGCCGAAGCCT"
Response: yes (1)

Prompt: Moving on to the next sequence: "CATCCAAGGTCAATGCTAGGTCAGTGAAAGCATT"
Response: yes (1)
